target under test: medaka GCRP receptor (medaka)
assay explanation: radioligand binding; competitive displacement on HEK293T cells transfected with GCRPR (300 ng DNA/well, 12-well plates); 100,000 cpm 125I-chGCRP without or with various concentrations of cold peptides, 1 h, binding buffer (serum-free DMEM with 0.1% BSA, pH 7.4); IC50 by nonlinear regression
pIC50: −log10 of the molar value.
parameter measured: pIC50

{"columns": ["binder", "result"],
 "data": [
  ["HTDGMFTSDLTNYLDKMKAKNFVEWLAAIKQQE [Medaka GCRP]", 6.49]
]}
